System: UO-31 renal
Test description: NCI tumour cell line growth inhibition, 48 h
Metric: TGI

| Molecule | TGI |
| --- | --- |
| C/C=C(/C)C(=O)O[C@@H]1c2c(C)coc2C[C@H]2CC[C@H](O)[C@H](C)[C@]21C | > 100 µM |
| Nc1nc2c(ncn2CCOC(c2ccccc2)P(=O)(O)O)c(=O)[nH]1 (stereo not drawn) | > 100 µM |

Please provide the recorded TGI for CCOC(OCC)C(CC)[Se]c1ccccc1[N+](=O)[O-] (stereo not drawn) , tested on UO-31 renal.
> 100 µM

Please provide the recorded TGI for COc1ccc2cc(C(=O)/C=C/c3cccc(Cl)c3Cl)ccc2c1 , tested on UO-31 renal.
> 53.2 µM

Please provide the recorded TGI for Oc1ccc(-c2nc3cc(C(F)(F)F)ccc3n2CC2CCCN3CCCCC23)cc1 (stereo not drawn) , tested on UO-31 renal.
25.1 µM

Please provide the recorded TGI for Cc1ccc(N=C2CSc3nnc(-c4csc5c4CCCC5)n3N2)cc1 , tested on UO-31 renal.
> 50 µM

Please provide the recorded TGI for O=c1nc2n(cc1/C=C\Br)C1CC(O)C(CO2)O1 (stereo not drawn) , tested on UO-31 renal.
> 100 µM

Please provide the recorded TGI for O=[N+]([O-])c1ccc(/C=C/c2ccc(N=Nc3ccc(/C=C/c4ccc([N+](=O)[O-])cc4S(=O)(=O)O)c(S(=O)(=O)O)c3)cc2S(=O)(=O)O)c(S(=O)(=O)O)c1 , tested on UO-31 renal.
> 100 µM

---

System: A549 NSCLC
Test description: NCI tumour cell line growth inhibition, 48 h
Metric: TGI

| Compound | Measurement target | Metric | Measured result |
| --- | --- | --- | --- |
| COC(=O)c1ccc2n1C1CC3CC(CC2C3)C1 | A549 NSCLC | TGI | > 100 µM |
| Cc1cccc2sc(NC(=O)c3cc([N+](=O)[O-])ccc3Cl)nc12 | A549 NSCLC | TGI | 51.7 µM |
| Nc1c(C(=O)c2cccc(OCCN3CCOCC3)c2)cnn1-c1ccc(F)cc1 | A549 NSCLC | TGI | > 25 µM |
| Cc1ccc(NS(=O)(=O)c2cc(C(C)(C)C)ccc2OCCOCCOCCOc2ccc(C(C)(C)C)cc2S(=O)(=O)Nc2ccc(C)cc2)cc1 | A549 NSCLC | TGI | > 100 µM |

Fill in: TGI of CN(C)C(=O)CC(C(=O)O)c1c[nH]c2ccccc12 (stereo unspecified) is ___
> 100 µM

Fill in: TGI of CC1(C)OCC2OC3([C@H](O)CCO)OC(C)(C)OC3C2O1 (stereo partly specified) is ___
> 100 µM

Fill in: TGI of O=C(O)c1c(CC(Cc2ccc3c(c2)CCCC3)C(=O)O)ccc2c1CCCC2 (stereo unspecified) is ___
> 100 µM

Fill in: TGI of CC1=C(C(=O)OCCO[N+](=O)[O-])C(c2ccccc2C(F)(F)F)C(C(=O)OC(C)C)=C(C)N1 (stereo unspecified) is ___
> 100 µM

Fill in: TGI of NC(=O)N/N=C(\Cc1nc2ccc(C(=O)c3ccccc3)cc2[nH]c1=O)C(=O)Nc1ccc(Br)cc1 is ___
> 100 µM

---

Test system: NCI-H522 lung
Test description: NCI tumour cell line growth inhibition, 48 h
Metric: GI50

| Compound | GI50 |
| --- | --- |
| C=C1C(=O)O[C@H]2[C@H]1CC/C(COC(=O)C(=O)c1c[nH]c3ccc(OC)cc13)=C\CC[C@@]1(C)O[C@@H]21 | 5.34 µM |
| COc1cc2cc(Oc3ccc(NC(=O)Nc4ccccc4)cc3)c(C)nc2cc1OCCN1CCCCC1 | 6.22 µM |
| Cc1ccc(N=C2CSc3nnc(-c4csc5c4CCCC5)n3N2)cc1 | 0.114 µM |
| Cc1cc(S(=O)(=O)Nc2nc3ccsc3c(=O)n2Cc2ccco2)c(S)cc1Cl | > 100 µM |
| CS(=O)(=O)N1CCN(Cc2cc3nc(-c4cccc5[nH]ncc45)nc(N4CCOCC4)c3s2)CC1 (tested in a mixture with another compound) | 0.375 µM |
| CN(C)CCNC(=O)c1cccc2cc3ccccc3nc12 | 1.32 µM |

Alright, here's another compound for you.
Fill in: GI50 of COc1cc2c3c(n(CCCN4CCN(C)CC4)c(=O)c2cc1OC)-c1cc2c(cc1C3=O)OCO2 is ___
15.4 µM

---

What follows is a collection of GI50 values obtained with MDA-MB-435.

Consider the reported GI50 for these compounds:
| Compound | GI50 |
| --- | --- |
| CCCCCCCCOc1ccc(/C=N/Nc2cc(C)nc3ccc(Cl)cc23)cc1 | 1.73 µM |
| COC(=O)[C@]12CC[C@@H](C)[C@H](C)[C@@H]1C1=CC[C@@H]3[C@@]4(C)C(C=O)=C[C@@](C)(COC(C)=O)[C@@H]4[C@H](O)C[C@@]3(C)[C@]1(C)CC2 | 2.09 µM |
| COc1c2ccccc2c(O)c2c(=O)c(C(=O)O)cn(C)c12 | > 100 µM |
| COc1cc2cc(Oc3ccc(NC(=O)Nc4ccccc4)cc3)c(C)nc2cc1OCCN1CCCCC1 | 5.55 µM |
| NC1=NC(c2ccccc2)N=C(Nc2ccccc2)N1 (centres undefined) | 34.5 µM |
| COc1cc(NN=C(c2ccc(O)cc2)c2ccc(O)cc2)c([N+](=O)[O-])cc1[N+](=O)[O-] | 10.4 µM |
| Cc1ccc(S(=O)(=O)Oc2ccc3c4c(c(=O)oc3c2)CCCCC4)cc1 | > 100 µM |
| N#CC1C(=N)Cc2ccccc2-c2ccccc21 (centres undefined) | 1.2 µM |

Alright, here's another compound for you.
Please provide the recorded GI50 for Nc1ccc(C#Cc2cncnc2Nc2ccc(OCc3cccc(F)c3)c(Cl)c2)cc1 , tested on MDA-MB-435.
> 17.6 µM

---

Test system: SF-268 CNS
Test description: NCI tumour cell line growth inhibition, 48 h
Metric: TGI (µM)
Only the number, expressed in µM, is required.

Consider the reported TGI for these compounds:
| Smiles notation | Unit label | TGI |
| --- | --- | --- |
| C#CCN1CCN(C(=S)N/N=C(\C)c2ccccn2)CC1 | µM | 16.5 |
| Clc1ccc(OCc2nnc3sc(-c4ccc(-c5ccc(Cl)cc5Cl)o4)nn23)c(Cl)c1 | µM | 32.5 |

Fill in: TGI of COC(=O)c1c2c(c(C)[n+]([O-])c1C)C(=O)C=C(NCc1cccc(OC)c1)C2=O is ___
4.21

Fill in: TGI of c1ccc2nc3[nH]c4ccccc4c3cc2c1 is ___
7.3

---

Documented TGI across a set of compounds
System: SF-268 CNS
Test description: NCI tumour cell line growth inhibition, 48 h

Consider the reported TGI for these compounds:
| Compound | TGI |
| --- | --- |
| C=CCN1C(=O)/C(=C/c2ccc(C)cc2)N=C1SC/C=C/C | > 100 µM |
| NCCNCC(O)CO (centres undefined) | > 100 µM |
| Cc1ccc(S(=O)(=O)CNC(=S)CCCC(=S)NCS(=O)(=O)c2ccc(C)cc2)cc1 | > 100 µM |
| O=C1CN(c2ccc(Cl)cc2)C(=O)CN1CCN1CC(=O)N(c2ccc(Cl)cc2)CC1=O | > 100 µM |
| Nc1nc2ccc([C@@H]3Nc4ccc5[nH]ncc5c4[C@H]4[C@H]5CCC(C5)[C@H]43)cc2s1 | 4.52 µM |
| Cc1cccc(-c2cc(=O)c3ccc(C)nc3[nH]2)c1 | > 100 µM |
| Cc1c(O)c(=O)ccn1C1OC(CO)C(O)C1O (centres undefined) | > 100 µM |
| Cc1cc(Cc2cc(C)c(NC(=O)C(=O)C3C(=O)NC(=S)NC3=O)c(C(C)C)c2)cc(C(C)C)c1NC(=O)C(=O)C1C(=O)NC(=S)NC1=O | > 100 µM |
| COc1ccc(NC(=O)C(=O)NNC(=O)c2sc(NNC(C)=O)nc2C)c([N+](=O)[O-])c1 | > 100 µM |
| O=C1C(Cl)=C(Nc2ccc3cn[nH]c3c2)C(=O)c2ccccc21 | 3 µM |

Alright, here's another compound for you.
Please provide the recorded TGI for CN1CCN(c2ccc(-c3cnc4c(-c5csc6ccccc56)cnn4c3)cc2)CC1 , tested on SF-268 CNS.
> 15 µM

---

Test system: MALME-3M melanoma
Test description: NCI tumour cell line growth inhibition, 48 h
Documented TGI across a set of compounds

Consider the reported TGI for these compounds:
| Compound | Measured result |
| --- | --- |
| N#C/C(=C/c1cccnc1)C(=O)c1ccccc1 | > 100 µM |
| COc1ccc(/C(Cl)=C(\C=O)c2ccc(F)cc2)cc1 | 48 µM |
| COC1=CC(=O)C(O)=C(C[C@@]2(C)[C@@H]3CCC[C@H](COC(=O)CCCCCNC(=O)OC(C)(C)C)[C@@]3(C)CC[C@@H]2C)C1=O | > 10 µM |
| NC1CC2C3CCC2C1C3=O (stereo not drawn) | > 100 µM |
| O=C(O)CCC1COc2ccccc2O1 (stereo not drawn) | > 10 µM |
| COC(=O)[C@H]1[C@H](C(=O)OC)[C@@H](C)c2c(ccc3c2[nH]c2ccccc23)[C@@H]1C | > 100 µM |

Fill in: TGI of COc1ccc2nc(NCCCNCCO)c3sc4ccc(F)cc4c(=O)c3c2c1 is ___
3.23 µM

Fill in: TGI of C=C(CN(CC(=C)C(=O)c1ccccc1)C(C)(C)C)C(=O)c1ccccc1 is ___
29.7 µM

Fill in: TGI of O=C(O)Cc1ccc(N2N=C(c3ccccc3)CC2=O)cc1 is ___
> 100 µM

Fill in: TGI of COc1ccc(C2NCCc3c2[nH]c2ccccc32)cc1CN1CCN(c2ccc(F)cc2)CC1 (stereo not drawn) is ___
3.49 µM

Fill in: TGI of CCOP(=O)(CC(=O)C1=C(O)C(CCCNC(=O)OC(C)(C)C)N(Cc2ccc(OC)c(OC)c2)C1=O)OCC (stereo not drawn) is ___
> 100 µM
